Biological target: cannabinoid receptor binding sites (CP 55940 binding sites) (Rattus norvegicus, UniProt P20272)
Sequence (P20272 whole entry): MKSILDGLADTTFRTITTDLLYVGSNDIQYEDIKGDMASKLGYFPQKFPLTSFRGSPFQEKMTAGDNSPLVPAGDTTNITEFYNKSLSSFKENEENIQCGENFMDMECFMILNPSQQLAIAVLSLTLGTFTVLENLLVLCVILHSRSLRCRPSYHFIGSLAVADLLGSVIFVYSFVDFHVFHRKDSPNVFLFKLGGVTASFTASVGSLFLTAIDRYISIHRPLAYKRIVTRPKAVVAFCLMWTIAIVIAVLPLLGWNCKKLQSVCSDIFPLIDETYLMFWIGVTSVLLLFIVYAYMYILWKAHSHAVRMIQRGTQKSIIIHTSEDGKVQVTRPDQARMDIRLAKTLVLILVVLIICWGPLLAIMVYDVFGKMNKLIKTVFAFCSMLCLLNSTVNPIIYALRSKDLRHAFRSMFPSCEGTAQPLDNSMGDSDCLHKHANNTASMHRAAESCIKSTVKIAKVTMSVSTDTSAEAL
Where a name gives a salt, the structure may show the parent alone.
# Lookup of reported IC50 keyed by entry
Answer with a number only, understood to be in nM.

# compound, IC50 [nM]
measured = [
    ("COc1ccc(C(=O)c2cccc3c2ccn3CCN2CCOCC2)cc1 [Example 1A, hydrochloride]", 444),
]

Reported IC50 ( O=C(c1ccc2ccccc2c1)c1cccc2c1ccn2CCN1CCOCC1 ) = 363

###

Target: cannabinoid receptor (Mus musculus)
Construct: mouse vasa deferentia (MVD) preparation in vitro
Sequence (P47746 whole entry): as the sequence (P20272 whole entry) above, with E95D counted along it
Experiment: mouse vas deferens (MVD) test, inhibition of contractions in vitro
Conditions: considered active at IC50 of 5.0 μM or less, read-out: MVD IC50 (inhibitory concentration which produces 50% of the maximum response)
Structures can show the parent of a compound that is named as a salt.
IC50 under 30 nM gets yes (1), anything at or over 30 nM gets no (0).

Illustrative cases are given below, each with its answer.
# compound, targetEntity, className
measured = [
    ("COc1ccc(C(=O)c2cccc3c2ccn3CCCN2CCOCC2)cc1 [Example 1B, hydrochloride]", "cannabinoid receptor (Mus musculus)", "no (0)"),
    ("O=C(c1ccc2ccccc2c1)c1cccc2c1ccn2CCN1CCOCC1", "cannabinoid receptor (Mus musculus)", "no (0)"),
    ("COc1ccc(C(=O)c2cccc3c2c(C)cn3CCN2CCOCC2)cc1 [Example 1E, hydrochloride]", "cannabinoid receptor (Mus musculus)", "no (0)"),
    ("O=C(c1cccc2ccccc12)c1cccc2c1ccn2CCN1CCOCC1", "cannabinoid receptor (Mus musculus)", "yes (1)"),
]

Field: next compound
I wonder whether COc1ccc(C(=O)c2cccc3c2ccn3CCN2CCOCC2)cc1 [Example 1A, hydrochloride] has IC50 below 30 nM. Can you tell?
no (0)

These measurements were taken from patent US5081122A.
